# Tested on: Escherichia coli
# ASSAY_EXPLANATION: MIC against clinical isolates
# Format: cell-based
# RUN_PARAMETERS: clinical isolate GN 3481; unit assumed
So I've got a bunch of compounds here, and I need their MIC values.

Query: MIC lookup needed for CN1CCN(C(=O)NC(C(=O)NC2C(=O)N3C(C(=O)O)=C(CSc4nnnn4C)CSC23)c2ccccc2)C(=O)C1=O (single isomer, unassigned) [compound 63] , thanks.
Reply: 3.13 µg/mL

Query: Next compound up: CC1(C)S[C@@H]2[C@H](NC(=O)[C@H](N)c3ccccc3)C(=O)N2[C@H]1C(=O)O [Sodium Ampicillin, SodiumAmpicillin, reference compound]
Reply: 6.25 µg/mL

Query: Query CC(=O)OCC1=C(C(=O)O)N2C(=O)[C@@H](NC(=O)Cc3cccs3)[C@H]2SC1 [Sodium Cephalothin, SodiumCephalothin, reference compound] next
Reply: 12.5 µg/mL

====

# Test system: Staphylococcus aureus
# ASSAY_EXPLANATION: MIC against clinical isolates
# Type: cell-based
# RUN_PARAMETERS: clinical isolate MS 8588; unit assumed
EXPERIMENTAL_READOUT: MIC (µg/mL)
# output: bare number, implied unit µg/mL

Query: Would you kindly share the measured MIC for CC1(C)S[C@@H]2[C@H](NC(=O)[C@H](N)c3ccccc3)C(=O)N2[C@H]1C(=O)O [Sodium Ampicillin, SodiumAmpicillin, reference compound] ?
Reply: 6.25

Query: Now this one: CCN1CCN(C(=O)NC(C(=O)NC2C(=O)N3C(C(=O)O)=C(CSc4nnnn4C)CSC23)c2ccccc2)C(=O)C1=O (stereo not drawn)
Reply: 1.56

Query: Another compound to check: CCN1CCN(C(=O)NC(C(=O)NC2C(=O)N3C(C(=O)O)=C(COC(C)=O)CSC23)c2ccccc2)C(=O)C1=O (stereo not drawn)
Reply: 1.56

Query: And the next one, CCCCCCCCN1CCN(C(=O)N[C@@H](C(=O)N[C@@H]2C(=O)N3[C@@H]2SC(C)(C)[C@@H]3C(=O)O)c2ccccc2)CC1=O ?
Reply: 1.57

====

# Test system: Staphylococcus aureus
# ASSAY_EXPLANATION: MIC against clinical isolates
# Format: cell-based
# RUN_PARAMETERS: clinical isolate F-2; unit assumed
EXPERIMENTAL_READOUT: MIC (µg/mL)
Reply with just the number (in µg/mL).

Query: Looking for the measured MIC of CCCCCCCCN1CCN(C(=O)N[C@@H](C(=O)N[C@@H]2C(=O)N3[C@@H]2SC(C)(C)[C@@H]3C(=O)O)c2ccccc2)C(=O)C1 , can you help?
Reply: 0.79

Query: Please do the same for CC(=O)OCC1=C(C(=O)O)N2C(=O)C(NC(=O)C(NC(=O)N3CCN(C)C(=O)C3=O)c3ccccc3)C2SC1 (single isomer, unassigned) as well.
Reply: 0.78

Query: Also, Cc1nnc(SCC2=C(C(=O)O)N3C(=O)C(NC(=O)C(NC(=O)N4CCN(C)C(=O)C4=O)c4ccccc4)C3SC2)s1 (single isomer, unassigned) please.
Reply: 0.78

Query: Then what about the molecule CCN1CCN(C(=O)NC(C(=O)NC2C(=O)N3C(C(=O)O)=C(CSc4nnnn4C)CSC23)c2ccccc2)C(=O)C1=O (centres unmarked) ?
Reply: 1.56

Query: How about this molecule: CC(=O)OCC1=C(C(=O)O)N2C(=O)[C@@H](NC(=O)[C@H](N)c3ccccc3)[C@H]2SC1 [Sodium Cephaloglycin, SodiumCephaloglycin, reference compound]
Reply: 1.56

Query: What do we get for CCCCCCN1CCN(C(=O)N[C@@H](C(=O)N[C@@H]2C(=O)N3[C@@H]2SC(C)(C)[C@@H]3C(=O)O)c2ccccc2)C(=O)C1 ?
Reply: 1.57

Query: # iterate: CN1CCN(C(=O)NC(C(=O)NC2C(=O)N3C(C(=O)O)=C(CSc4nnnn4C)CSC23)c2ccccc2)C(=O)C1=O (single isomer, unassigned)
Reply: 0.78

Query: Try this molecule too: CC(=O)N1CCN(C(=O)N[C@@H](C(=O)N[C@@H]2C(=O)N3[C@@H]2SC(C)(C)[C@@H]3C(=O)O)c2ccccc2)C(=O)C1
Reply: 3.13

Query: Next: CCCCCCCCN1CCN(C(=O)N[C@@H](C(=O)N[C@@H]2C(=O)N3[C@@H]2SC(C)(C)[C@@H]3C(=O)O)c2ccccc2)CC1=O
Reply: 0.79

Query: Entry CCCCN1CCN(C(=O)N[C@@H](C(=O)N[C@@H]2C(=O)N3[C@@H]2SC(C)(C)[C@@H]3C(=O)O)c2ccccc2)C(=O)C1=O (single isomer, unassigned) please
Reply: 1.57

Query: Item: CN1CCN(C(=O)N[C@@H](C(=O)N[C@@H]2C(=O)N3C(C(=O)[O-])=C(C[n+]4ccccc4)CS[C@H]23)c2ccccc2)C(=O)C1=O
Reply: 1.56
